target-or-system: cloned human GRP-preferring receptor (BB2) (Homo sapiens, UniProt P30550)
Construct: expressed in transfected cells; membranes prepared from the cells
Sequence (P30550 whole entry): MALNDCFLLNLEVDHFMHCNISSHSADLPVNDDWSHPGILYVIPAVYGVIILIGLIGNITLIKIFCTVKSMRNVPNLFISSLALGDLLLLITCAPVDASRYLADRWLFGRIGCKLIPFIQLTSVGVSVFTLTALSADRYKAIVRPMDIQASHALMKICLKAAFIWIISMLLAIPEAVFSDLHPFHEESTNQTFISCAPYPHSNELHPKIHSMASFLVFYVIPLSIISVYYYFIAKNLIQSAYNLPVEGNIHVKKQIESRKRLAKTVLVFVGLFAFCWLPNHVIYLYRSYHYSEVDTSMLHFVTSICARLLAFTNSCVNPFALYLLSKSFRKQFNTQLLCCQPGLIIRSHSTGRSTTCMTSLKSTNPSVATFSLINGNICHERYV
test-description: BB2 binding assay, [125I][Tyr4]bombesin competition on membranes of CHO-K1 cells
run-conditions: Table 2, N-acyl derivatives of Intermediate VIa, 90 minutes
pIC50: −log10 of the molar value.
recorded-metric: pIC50

1. Cc1ccccc1CC(=O)N[C@@](C)(Cc1c[nH]c2ccccc12)C(=O)NCC1(c2ccccn2)CCCCC1 : < 5.00
